Values were extracted from patent US20240360228A1.

Reported % Blocking values follow for various binders
Molecular target: T1, human chemokine (C-C motif) receptor 8 (CCR8) (human, UniProt P51685 1-355)
T1 construct: also called hCCR8
T1 sequence (P51685 whole entry): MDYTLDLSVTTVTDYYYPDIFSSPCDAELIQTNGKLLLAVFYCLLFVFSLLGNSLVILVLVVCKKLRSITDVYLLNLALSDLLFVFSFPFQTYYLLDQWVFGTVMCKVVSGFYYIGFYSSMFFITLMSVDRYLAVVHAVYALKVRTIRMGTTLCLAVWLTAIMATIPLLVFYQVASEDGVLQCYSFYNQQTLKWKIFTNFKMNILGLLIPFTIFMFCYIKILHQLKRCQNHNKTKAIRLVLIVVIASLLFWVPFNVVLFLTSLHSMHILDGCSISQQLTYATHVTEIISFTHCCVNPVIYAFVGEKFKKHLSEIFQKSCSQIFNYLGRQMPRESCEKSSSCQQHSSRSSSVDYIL
Experiment: flow cytometry blocking, human PBMC, CD3+ gate; competitor PE-AB8
property: % Blocking (%)

[
  {
    "binder": "anti-CCR8 monoclonal antibody AB6 (antibody, V domains shown, also called antibody 6; clone 6) VH: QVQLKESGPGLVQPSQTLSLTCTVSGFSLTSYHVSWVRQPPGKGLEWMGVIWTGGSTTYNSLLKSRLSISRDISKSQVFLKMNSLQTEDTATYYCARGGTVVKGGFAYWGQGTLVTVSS VL: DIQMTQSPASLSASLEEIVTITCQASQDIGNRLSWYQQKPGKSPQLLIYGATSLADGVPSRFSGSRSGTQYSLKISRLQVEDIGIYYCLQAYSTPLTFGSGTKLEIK",
    "property": "% Blocking",
    "testResult": 85.2
  },
  {
    "binder": "anti-CCR8 monoclonal antibody AB10 (antibody, V domains shown, Hybridoma monoclonal; also called antibody 10; clone 10) VH: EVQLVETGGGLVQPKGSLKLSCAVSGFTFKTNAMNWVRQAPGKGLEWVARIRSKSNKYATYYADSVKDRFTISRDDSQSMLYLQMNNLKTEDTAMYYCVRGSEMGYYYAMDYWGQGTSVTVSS VL: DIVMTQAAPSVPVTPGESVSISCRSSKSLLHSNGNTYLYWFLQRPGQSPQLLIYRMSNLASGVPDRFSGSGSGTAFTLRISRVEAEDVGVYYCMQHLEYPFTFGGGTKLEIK",
    "property": "% Blocking",
    "testResult": 48.6
  },
  {
    "binder": "anti-CCR8 monoclonal antibody AB11 (antibody, V domains shown, Hybridoma monoclonal; also called antibody 11; clone 11) VH: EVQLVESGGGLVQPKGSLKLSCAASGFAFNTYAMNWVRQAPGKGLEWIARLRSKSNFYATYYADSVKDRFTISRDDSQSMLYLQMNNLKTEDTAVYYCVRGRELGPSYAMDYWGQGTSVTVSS VL: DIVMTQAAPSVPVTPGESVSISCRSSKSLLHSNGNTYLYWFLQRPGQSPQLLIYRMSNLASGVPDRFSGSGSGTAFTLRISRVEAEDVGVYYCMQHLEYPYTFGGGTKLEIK",
    "property": "% Blocking",
    "testResult": -4.02
  },
  {
    "binder": "anti-CCR8 monoclonal antibody AB5 (antibody, V domains shown, Hybridoma monoclonal; also called antibody 5; clone 5) VH: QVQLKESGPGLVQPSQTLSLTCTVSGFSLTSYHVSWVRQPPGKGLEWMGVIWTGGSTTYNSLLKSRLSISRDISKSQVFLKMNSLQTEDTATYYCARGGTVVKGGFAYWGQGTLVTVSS VL: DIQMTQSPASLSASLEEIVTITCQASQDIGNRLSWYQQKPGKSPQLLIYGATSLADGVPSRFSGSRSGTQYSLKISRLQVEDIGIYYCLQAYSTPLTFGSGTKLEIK",
    "property": "% Blocking",
    "testResult": 0.12
  },
  {
    "binder": "anti-CCR8 monoclonal antibody AB13 (antibody, V domains shown, Hybridoma monoclonal; also called antibody 13; clone 13) VH: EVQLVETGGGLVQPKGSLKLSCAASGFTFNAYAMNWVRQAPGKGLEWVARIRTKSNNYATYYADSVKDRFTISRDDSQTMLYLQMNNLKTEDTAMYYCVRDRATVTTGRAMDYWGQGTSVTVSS VL: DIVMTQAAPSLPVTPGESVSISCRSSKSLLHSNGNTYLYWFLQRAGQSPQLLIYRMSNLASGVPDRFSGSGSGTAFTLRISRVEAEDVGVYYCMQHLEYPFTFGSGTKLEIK",
    "property": "% Blocking",
    "testResult": 25.3
  }
]
